# Tested on: VUN 10,010
# test-details: Degradation of high molecular weight PAHs by axenic cultures
# Assay type: cell-based, Stenotrophomonas maltophilia
# setup-conditions: BSM + PYR (pyrene 250 mg l^−1), 28 day samples
Some molecules, each annotated with its measured PAH removal (%).

Illustrative cases are given below, each with its answer.
> print(dat)
                                   molecule  target.of.assay  readout.value
1              c1ccc2c(c1)ccc1c3ccccc3ccc21       VUN 10,010    28.3 + 1.2%
2  c1ccc2c(c1)cc1ccc3cccc4ccc2c1c34 [Benzo[a]pyrene, benzo[a]pyrene]       VUN 10,010    32.2 + 1.2%
3  c1ccc2cc3c(ccc4ccccc43)cc2c1 [Benz[a]anthracene, benz[a]anthracene]       VUN 10,010   19.84 + 0.3%

Switching to the query record.
I would be grateful if you could share the reported PAH removal (%) for c1ccc2c(c1)ccc1cc3c(ccc4ccccc43)cc12 [Dibenz[a,h]anthracene, dibenz[a,h]anthracene] .
26.7 + 0.7%

---

Some compounds, each annotated with its measured solubility.
# test-details: physchem
# setup-conditions: 30 °C, aqueous with cosolvent or surfactant or cyclodextrin, thermodynamic from solid

> print(dat)
                                   compound  measurement.type  readout.value
1  c1ccc2c(c1)cc1ccc3cccc4ccc2c1c34 [Benzo[a]pyrene, benzo[a]pyrene]        solubility  160 to 180 µM

Switching to the query record.
I would be grateful if you could share the reported solubility for "c1ccc2c(c1)-c1cccc3cccc-2c13" .
730 to 810 µM

---

# test-details: PAH solubilization by surfactants (apparent solubility, MSR, Km)
# setup-conditions: 30° C.
measurement-type: solubility

> print(dat)
                                   compound  measurement.type  readout.value
1  c1ccc2c(c1)-c1cccc3cccc-2c13 [Fluoranthene, fluoranthene]        solubility       ~1.37 µM

I would be grateful if you could share the reported solubility for c1ccc2c(c1)cc1ccc3cccc4ccc2c1c34 [Benzo[a]pyrene, benzo[a]pyrene] .
~0.0159 µM

---

# Tested on: P. janthinellum VUO 10,201
# test-details: Degradation of high molecular weight PAHs by axenic cultures
# Format: cell-based, Penicillium janthinellum
# setup-conditions: MYPD, 28 day samples
The label depends only on PAH removal (%): fulfilled if it is at least 70%, not fulfilled if it is smaller.

Consider the worked cases shown below.
> print(dat)
                                   compound             target.of.assay    class.label
1  c1ccc2c(c1)cc1ccc3cccc4ccc2c1c34 [Benzo[a]pyrene, benzo[a]pyrene]  P. janthinellum VUO 10,201      fulfilled
2  c1ccc2cc3c(ccc4ccccc43)cc2c1 [Benz[a]anthracene, benz[a]anthracene]  P. janthinellum VUO 10,201  not fulfilled
3  c1ccc2c(c1)ccc1cc3c(ccc4ccccc43)cc12 [Dibenz[a,h]anthracene, dibenz[a,h]anthracene]  P. janthinellum VUO 10,201  not fulfilled
4  c1ccc2c(c1)ccc1c3ccccc3ccc21 [Chrysene, chrysene]  P. janthinellum VUO 10,201  not fulfilled

--- query ---
Can c1cc2ccc3cccc4ccc(c1)c2c34 [Pyrene, pyrene] be said to have PAH removal (%) at or above 70%?
fulfilled

These data points were gathered from patent US20040023362A1.
